Tested on: Enterococcus faecalis
Procedure Text: Antibacterial activity against VanB+ Enterococcus faecalis ATCC 51299 by broth microdilution method
Format: functional
Quick list: MIC per entry.
Field note: include the unit after the figure.

Take a look at these entries with their results.
Structure As Smiles	Measurement Label	Val
CC(=O)N[C@H]1[C@H](O[C@@H]2c3ccc(c(Cl)c3)Oc3cc4cc(c3O)Oc3ccc(cc3Cl)C[C@H]3NC(=O)[C@H](Nc5c(NCc6ccc(-c7ccccc7)cc6)c(=O)c5=O)c5ccc(O)c(c5)Oc5cc(O)cc(c5)[C@H](NC3=O)C(=O)N[C@H]4C(=O)N[C@H]3C(=O)N[C@@H]2C(=O)N[C@H](C(=O)O)c2cc(O)cc(O)c2-c2cc3ccc2O)O[C@H](CO)[C@@H](O)[C@@H]1O	MIC	8 µg/mL
COC(=O)[C@H]1NC(=O)[C@H]2NC(=O)[C@H](NC(=O)[C@@H]3NC(=O)[C@H]4NC(=O)[C@@H](Cc5ccc(c(Cl)c5)Oc5cc3cc(c5O)Oc3ccc(cc3Cl)[C@H]2O[C@@H]2O[C@H](CO)[C@@H](O)[C@H](O)[C@H]2NC(C)=O)NC(=O)[C@H](Nc2c(OC)c(=O)c2=O)c2ccc(O)c(c2)Oc2cc(O)cc4c2)c2ccc(O)c(c2)-c2c(O)cc(O)cc21	MIC	4 µg/mL

Please examine the following record next.
# lookup: O=C1N[C@H]2C(=O)N[C@H]3C(=O)N[C@H](C(=O)N[C@H](C(=O)O)c4cc(O)cc(O)c4-c4cc3ccc4O)[C@H](O)c3ccc(c(Cl)c3)Oc3cc2cc(c3O)Oc2ccc(cc2Cl)C[C@H]2NC(=O)[C@H](Nc3c(NCc4ccc(-c5ccccc5)cc4)c(=O)c3=O)c3ccc(O)c(c3)Oc3cc(O)cc(c3)[C@@H]1NC2=O on Enterococcus faecalis, MIC = 8 µg/mL

---

System: Staphylococcus epidermidis
Procedure Text: Antibacterial activity against Staphylococcus epidermidis expressing mecA by broth microdilution method
Assay type: functional
Measurement Label: MIC
Field note: include the unit after the figure.

Structure As Smiles	MIC
COC(=O)[C@H]1NC(=O)[C@H]2NC(=O)[C@H](NC(=O)[C@@H]3NC(=O)[C@H]4NC(=O)[C@H](NC(=O)[C@H](Nc5c(NCc6ccc(-c7ccccc7)cc6)c(=O)c5=O)c5ccc(O)c(c5)Oc5cc4cc(O)c5C)[C@H](O)c4ccc(cc4)Oc4cc3cc(c4O)Oc3ccc(cc3)[C@H]2O)c2ccc(O)c(c2)-c2c(O)cc(O)cc21	2 µg/mL
CC(=O)N[C@H]1[C@H](O[C@@H]2c3ccc(c(Cl)c3)Oc3cc4cc(c3O)Oc3ccc(cc3Cl)C[C@H]3NC(=O)[C@H](Nc5c(NCc6ccc(-c7ccccc7)cc6)c(=O)c5=O)c5ccc(O)c(c5)Oc5cc(O)cc(c5)[C@H](NC3=O)C(=O)N[C@H]4C(=O)N[C@H]3C(=O)N[C@@H]2C(=O)N[C@H](C(=O)O)c2cc(O)cc(O)c2-c2cc3ccc2O)O[C@H](CO)[C@@H](O)[C@@H]1O	1 µg/mL

Please examine the following record next.
Please fill in: MIC reported for COC(=O)[C@H]1NC(=O)[C@H]2NC(=O)[C@H](NC(=O)[C@@H]3NC(=O)[C@H]4NC(=O)[C@@H](Cc5ccc(cc5)Oc5cc3cc(c5O)Oc3ccc(cc3)[C@H]2O)NC(=O)[C@H](Nc2c(NCc3ccc(-c5ccccc5)cc3)c(=O)c2=O)c2ccc(O)c(c2)Oc2cc(O)cc4c2)c2ccc(O)c(c2)-c2c(O)cc(O)cc21 = 8 µg/mL
